Target Entity: T1, CD134 protein (His-tagged, Sino Biological Inc. 10481-H08H) (human, UniProt P43489 29-216)
T1 construct: bought protein coated on ELISA plates; also called OX40; TNFRSF4; not shown: His tag
T1 sequence (looked up): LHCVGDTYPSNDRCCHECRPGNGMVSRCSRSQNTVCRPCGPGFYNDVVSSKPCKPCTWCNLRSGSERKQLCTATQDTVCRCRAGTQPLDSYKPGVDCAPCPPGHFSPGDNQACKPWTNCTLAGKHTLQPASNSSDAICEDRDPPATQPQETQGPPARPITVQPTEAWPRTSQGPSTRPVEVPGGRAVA
Experiment Notes: ELISA, coated His-tagged CD134; further: test concentration or dose not given here
# ELISA [abs. corr.] values compiled below
# output: bare number, implied unit abs. corr.

Binder	Measured Quantity	Experimental Value
P018.S.11.A.E03 (antibody, V domains shown, V regions on human Ig constant parts; also called AB134_34) VH: QSVEESGGRLVTPGTPLTLTCTVSGFSLSSYAVSWVRQAPWKGLEWIGIISSGGNTYYASWATGRFTISKTSTTVDLKITSPTTEDTATYFCARGIHSYDDYLGYKLWGPGTLVTVSS VL: AIEMTQSPPSLSASVGETVRIRCLASEFLFNAVSWYQQKPEKPPTLLISGASNLESGVPPRFSGSGSGTDYTLTIGGVQAEDVAAYYCLGGYKRADLTFGPGTKVEIK	ELISA [abs. corr.]	0.276

In: # get_value(readout='ELISA [abs. corr.]', item= P018.S.12.A.H03 (antibody, V domains shown, V regions on human Ig constant parts; also called AB134_89) VH: QSLEESRGGLVQPEGSLTLTCKASGFSFSSGYYMCWVRQAPGKGLEWIGCIYSGSDSACYASWAKGRFTISKTSSTTVTLQMTSLTVADTATYFCVRDLGDYNALSYTINLWGPGTLVTVSS VL: DVVMTQTPSSVSAAVGGTVTIKCQASQSISTNLAWYQEKAGQPPKLLIYRASTVASGVPSRFKGSGSGTQFTLTISDLESADATTYFCQCIDYDDYGGTFGGGTEVVVK )
Out: 2.48

In: Which ELISA [abs. corr.] is reported for this binder? P018.S.12.A.H04 (antibody, V domains shown, V regions on human Ig constant parts; also called AB134_90) VH: QSVEESGGRLVTPGTPLTLTCTASGFSLSDYYMSWVRQAPGKGLEWIGFMNSGGNAYYASWASGRFTISKTSTTVDLKITSPTTEDTATYFCVRDLSRFSLWGRGTLVIVSS VL: AAVLTQTPSPVSAAVGGTVTINCQASPSVYSDYLSWFQQKPGQAPKLLIYWASTLTSGVPSRFSGSGSGTQFTLTISDVQSDDAATYYCAGGYSGNSDVWAFGGGTEVVVK
Out: 1.98
